For each entry below, report its pIC50 value.
Experimental target: Neuronal acetylcholine receptor subunit alpha-7 (Rattus norvegicus)
Sequence (Q05941 whole entry): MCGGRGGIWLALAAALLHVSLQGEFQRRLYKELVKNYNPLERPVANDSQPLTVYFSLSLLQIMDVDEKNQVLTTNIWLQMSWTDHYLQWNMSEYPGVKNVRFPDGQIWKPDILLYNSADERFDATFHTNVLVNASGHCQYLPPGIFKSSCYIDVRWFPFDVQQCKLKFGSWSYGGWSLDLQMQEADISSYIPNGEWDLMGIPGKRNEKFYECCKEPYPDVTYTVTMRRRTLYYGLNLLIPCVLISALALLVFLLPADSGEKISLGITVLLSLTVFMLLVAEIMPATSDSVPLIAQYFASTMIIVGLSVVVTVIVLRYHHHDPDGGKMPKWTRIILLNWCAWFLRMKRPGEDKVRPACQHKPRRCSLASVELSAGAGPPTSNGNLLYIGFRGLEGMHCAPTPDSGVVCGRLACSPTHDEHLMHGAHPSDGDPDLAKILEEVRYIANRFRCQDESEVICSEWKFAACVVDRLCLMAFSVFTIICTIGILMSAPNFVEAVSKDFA
Assay protocol: Antagonist activity at rat alpha-7 nicotinic acetylcholine receptor expressed in Xenopus oocytes assessed as inhibition of acetylcholine-induced currents preincubated for 10 mins followed by nicotine induction by two-electrode voltage-clamp electrophysiology assay
Give bare numbers, as −log10 of the molar value.

Here's what some known entries look like.
Quick one: pIC50 for COc1cc(N)c(Cl)cc1C(=O)NC1CN2CCC1CC2 (centres undefined) [ZACOPRIDE] ? 5.15

Reported pIC50 for O=C(NC1CN2CCC1CC2)c1ccccc1F (centres undefined) : what is it? 5.09

State the recorded pIC50 for this entry: "O=C(N[C@@H]1C[N+]2(CCl)CCC1CC2)c1ccccc1F" 4.41

Next:
Can you share its pIC50? I mean this compound: "O=C(N[C@H]1C[N+]2(CCl)CCC1CC2)c1ccccc1F" 4.55
